experiment.notes: Acute toxicity in mice
Assay type: in vivo, mouse
measurement.parameters: mouse, in vivo, iv, mice; intrav.; compound (4); read-out: Toxicity LD50 mice intrav.

compound.structure	LD50
CN1C[C@H](COC(=O)N2CCOCC2)C[C@@H]2c3cccc4[nH]c(Br)c(c34)C[C@H]21	18 to 22 mg/kg

----------
experiment.notes: Acute toxicity in mice
Format: in vivo, mouse
measurement.parameters: mouse, in vivo, po, mice; orally; compound (3); read-out: Toxicity LD50 mice, orally

compound.structure	LD50 (mg/kg)
CN1C[C@H](COC(=O)N2CCCCCC2)C[C@@H]2c3cccc4c3c(c(Br)n4C)C[C@H]21	600
